Test system: MKN1 (Gastric Carcinoma)
EXPERIMENT_DESCRIPTION: Bliss excess, mean over the matrix (fraction); higher = more synergy
Give measured Bliss excess for each item. Keep answers brief.
Could you respond with only the numeric value?

In plain terms, Cc1nc(-c2cn3c(n2)-c2ccc(-c4cnn(C(C)(C)C(N)=O)c4)cc2OCC3)n(C(C)C)n1 [Taselisib] + O=C(Nc1ccc2[nH]nc(-c3ccncc3)c2c1)[C@@H]1CCN(CC(=O)N2CCN(c3ccc(-c4ncccn4)cc3)CC2)C1 [SCH772984] (first compound max 10 µM, 7x7, partner max 5 µM) has a documented Bliss excess of 0.0698

Lab note: CS(=O)(=O)CCNCc1ccc(-c2ccc3ncnc(Nc4ccc(OCc5cccc(F)c5)c(Cl)c4)c3c2)o1 [Lapatinib] + C[C@@H](Oc1cc(-c2cnn(C3CCNCC3)c2)cnc1N)c1c(Cl)ccc(F)c1Cl [Crizotinib] (first compound max 10 µM, 7x7, partner max 10 µM) gave Bliss excess of 0.0038

Recorded Bliss excess (compound COc1nnc2ccc(N3CCC(c4ccc(OCCN5CCN(C)C(=O)[C@H]5C)cc4)CC3)nn12 [AZD5153] + CC1(C)CCC(CN2CCN(c3ccc(C(=O)NS(=O)(=O)c4ccc(NCC5CCOCC5)c([N+](=O)[O-])c4)c(Oc4cnc5[nH]ccc5c4)c3)CC2)=C(c2ccc(Cl)cc2)C1 [Venetoclax] (first compound max 1 µM, 7x7, partner max 1 µM) ): -0.0062

Briefly, Bliss excess measured for CN(CCO)CC[C@H](CSc1ccccc1)Nc1ccc(S(=O)(=O)NC(=O)c2ccc(N3CCC([C@@H](O)c4ccccc4-c4ccc(Cl)cc4)CC3)cc2)cc1S(=O)(=O)C(F)(F)F [AZD4320] + Nc1ccn([C@@H]2O[C@H](CO)[C@@H](O)C2(F)F)c(=O)n1 [Gemcitabine] (first compound max 1 µM, 7x7, partner max 0.3 µM) : 0.0005

CS(=O)(=O)CCNCc1ccc(-c2ccc3ncnc(Nc4ccc(OCc5cccc(F)c5)c(Cl)c4)c3c2)o1 [Lapatinib] + Cn1cnc2c(F)c(Nc3ccc(Br)cc3Cl)c(C(=O)NOCCO)cc21 [Selumetinib] (first compound max 10 µM, 7x7, partner max 10 µM) has a reported Bliss excess of -0.002

The compound identified as CS(=O)(=O)CCNCc1ccc(-c2ccc3ncnc(Nc4ccc(OCc5cccc(F)c5)c(Cl)c4)c3c2)o1 [Lapatinib] + NC1(c2ccc(-c3nc4ccn5c(=O)[nH]nc5c4cc3-c3ccccc3)cc2)CCC1 [MK-2206] (first compound max 10 µM, 7x7, partner max 10 µM) registered its Bliss excess at 0.0099

Form: compound = CN(C)CCCOc1ccc(-c2ccc3ncc4c(c3c2)n(C2CCOCC2)c(=O)n4C)cn1 [AZD0156] + O=C(c1cc(Cc2n[nH]c(=O)c3ccccc23)ccc1F)N1CCN(C(=O)C2CC2)CC1 [Olaparib] (first compound max 3 µM, partner max 3 µM) ; Bliss excess = 0.0242

* * *

System: PEO1 (Ovarian Carcinoma)
EXPERIMENT_DESCRIPTION: Bliss excess, mean over the matrix (fraction); higher = more synergy
VALUE_KIND: Bliss excess
# answer = number (no unit)

The reported value for N#Cc1cnc(Nc2cc(NC[C@H]3CNCCO3)c(C(F)(F)F)cn2)cn1 [SRA737] + CCc1c2c(nc3ccc(O)cc13)-c1cc3c(c(=O)n1C2)COC(=O)[C@]3(O)CC [SN-38] (first compound max 10 µM, 7x7, partner max 0.3 µM) in terms of Bliss excess is -0.0697

molecule NC1(C(=O)N[C@@H](CCO)c2ccc(Cl)cc2)CCN(c2ncnc3[nH]ccc23)CC1 [Capivasertib] + COc1nnc2ccc(N3CCC(c4ccc(OCCN5CCN(C)C(=O)[C@H]5C)cc4)CC3)nn12 [AZD5153] (first compound max 10 µM, 7x7, partner max 1 µM) , Bliss excess observed: 0.0529

response.value for Cc1c2c(nn1C)CSCc1cc(n(C)n1)CSc1cc(c3ccccc3c1)OCCCc1c(C(=O)O)n(C)c3c-2c(Cl)ccc13 [AZD5991] + C=CCn1c(=O)c2cnc(Nc3ccc(N4CCN(C)CC4)cc3)nc2n1-c1cccc(C(C)(C)O)n1 [AZD1775] (first compound max 1 µM, partner max 1 µM) (field: Bliss excess) = 0.0146

Reported Bliss excess of CN(CCO)CC[C@H](CSc1ccccc1)Nc1ccc(S(=O)(=O)NC(=O)c2ccc(N3CCC([C@@H](O)c4ccccc4-c4ccc(Cl)cc4)CC3)cc2)cc1S(=O)(=O)C(F)(F)F [AZD4320] + CS(=O)(=O)CCNCc1ccc(-c2ccc3ncnc(Nc4ccc(OCc5cccc(F)c5)c(Cl)c4)c3c2)o1 [Lapatinib] (first compound max 1 µM, 7x7, partner max 10 µM) : 0.0311

For record NC1(C(=O)N[C@@H](CCO)c2ccc(Cl)cc2)CCN(c2ncnc3[nH]ccc23)CC1 [Capivasertib] + CC(C)n1c(=O)n(C)c2cnc3cc(F)c(-c4ccc(OCCCN5CCCCC5)nc4)cc3c21 [AZD1390] (first compound max 10 µM, 7x7, partner max 0.3 µM) the listed Bliss excess is -0.0601

Data point: CCN(CCO)CCCOc1ccc2c(Nc3cc(CC(=O)Nc4cccc(F)c4)[nH]n3)ncnc2c1 [AZD2811] + O=C(c1cc(Cc2n[nH]c(=O)c3ccccc23)ccc1F)N1CCN(C(=O)C2CC2)CC1 [Olaparib] (first compound max 1 µM, 7x7, partner max 10 µM) ; Bliss excess = -0.0019

Documented Bliss excess of C[C@@H](Nc1cc(F)cc(F)c1)c1cc(C(=O)N(C)C)cc2c(=O)cc(N3CCOCC3)oc12 [AZD8186] + CC(=O)c1c(C)c2cnc(Nc3ccc(N4CCNCC4)cn3)nc2n(C2CCCC2)c1=O [Palbociclib] (first compound max 10 µM, 7x7, partner max 10 µM) : -0.026

* * *

Answer each item with its documented combination Emax.
Tested on: MHH-ES-1 (Ewing's Sarcoma)
EXPERIMENT_DESCRIPTION: combination Emax (second highest fraction inhibited in the dose matrix, 72 h); higher = more inhibition; extreme values may be limits of the assay
Give the figure by itself; no unit, no explanation.

Just so you know, measured combination Emax for Cc1cc2ncnn2cc1Nc1ncc2c(n1)n(C1CCOCC1)c(=O)n2C [AZD7648] + O=C(c1cc(Cc2n[nH]c(=O)c3ccccc23)ccc1F)N1CCN(C(=O)C2CC2)CC1 [Olaparib] (first compound max 10 µM, 7x7, partner max 10 µM) came out at 0.801

Record CN(CCO)CC[C@H](CSc1ccccc1)Nc1ccc(S(=O)(=O)NC(=O)c2ccc(N3CCC([C@@H](O)c4ccccc4-c4ccc(Cl)cc4)CC3)cc2)cc1S(=O)(=O)C(F)(F)F [AZD4320] + C1CN(CCC1(C(=O)N[C@@H](CCO)C2=CC=C(C=C2)Cl)N)C3=NC=NC4=C3C=CN4 [Capivasertib] (first compound max 1 µM, 7x7, partner max 3 µM) . Reported combination Emax: 0.48

* * *

System: A101D (Melanoma)
EXPERIMENT_DESCRIPTION: combination Emax (second highest fraction inhibited in the dose matrix, 72 h); higher = more inhibition; extreme values may be limits of the assay
VALUE_KIND: combination Emax

Entry CC1(C)CCC(CN2CCN(c3ccc(C(=O)NS(=O)(=O)c4ccc(NCC5CCOCC5)c([N+](=O)[O-])c4)c(Oc4cnc5[nH]ccc5c4)c3)CC2)=C(c2ccc(Cl)cc2)C1 [Venetoclax] + C[C@@H](Nc1cc(F)cc(F)c1)c1cc(C(=O)N(C)C)cc2c(=O)cc(N3CCOCC3)oc12 [AZD8186] (first compound max 1 µM, 7x7, partner max 3 µM) , A101D (Melanoma) data, combination Emax value: 0.387

Tested on A101D (Melanoma): CN(CCO)CC[C@H](CSc1ccccc1)Nc1ccc(S(=O)(=O)NC(=O)c2ccc(N3CCC([C@@H](O)c4ccccc4-c4ccc(Cl)cc4)CC3)cc2)cc1S(=O)(=O)C(F)(F)F [AZD4320] + Cn1cnc2c(F)c(Nc3ccc(Br)cc3Cl)c(C(=O)NOCCO)cc21 [Selumetinib] (first compound max 1 µM, 7x7, partner max 3 µM) . Observed combination Emax: 0.781

For COc1cccc(OCCCN)c1-c1cc(Nc2cnc(C#N)cn2)n[nH]1 [Prexasertib] + CN(C)CCCOc1ccc(-c2ccc3ncc4c(c3c2)n(C2CCOCC2)c(=O)n4C)cn1 [AZD0156] (first compound max 1 µM, 7x7, partner max 1 µM) on A101D (Melanoma), measured combination Emax was 0.737

Given the compound COc1cccc2c1C(=O)c1c(O)c3c(c(O)c1C2=O)C[C@@](O)(C(=O)CO)C[C@@H]3O[C@H]1C[C@H](N)[C@H](O)[C@H](C)O1 [Doxorubicin] + Cc1cc2ncnn2cc1Nc1ncc2c(n1)n(C1CCOCC1)c(=O)n2C [AZD7648] (first compound max 1 µM, 7x7, partner max 10 µM) and test system A101D (Melanoma), the measured combination Emax is 0.897

* * *

Tested on: SW620 (Colorectal Carcinoma)
EXPERIMENT_DESCRIPTION: Bliss excess, mean over the matrix (fraction); higher = more synergy
Bliss excess of -0.03 or higher: True. Under -0.03: False.

Prompt: Reported Bliss excess reaches at least -0.03 for CN(CCO)CC[C@H](CSc1ccccc1)Nc1ccc(S(=O)(=O)NC(=O)c2ccc(N3CCC([C@@H](O)c4ccccc4-c4ccc(Cl)cc4)CC3)cc2)cc1S(=O)(=O)C(F)(F)F [AZD4320] + CN(C)CCCOc1ccc(-c2ccc3ncc4c(c3c2)n(C2CCOCC2)c(=O)n4C)cn1 [AZD0156] (first compound max 1 µM, 7x7, partner max 1 µM) ?
Completion: True

Prompt: # bool: Bliss excess of COc1cc2ncnc(Nc3ccc(F)c(Cl)c3)c2cc1OCCCN1CCOCC1 [Gefitinib] + CC(C)n1c(=O)n(C)c2cnc3cc(F)c(-c4ccc(OCCCN5CCCCC5)nc4)cc3c21 [AZD1390] (first compound max 10 µM, 7x7, partner max 0.3 µM) >= -0.03
Completion: False

Prompt: Does CN(CCO)CC[C@H](CSc1ccccc1)Nc1ccc(S(=O)(=O)NC(=O)c2ccc(N3CCC([C@@H](O)c4ccccc4-c4ccc(Cl)cc4)CC3)cc2)cc1S(=O)(=O)C(F)(F)F [AZD4320] + CCN(CCO)CCCOc1ccc2c(Nc3cc(CC(=O)Nc4cccc(F)c4)[nH]n3)ncnc2c1 [AZD2811] (first compound max 1 µM, 7x7, partner max 1 µM) have a reported Bliss excess of at least -0.03?
Completion: True

Prompt: Determine whether this compound has Bliss excess no lower than -0.03: COc1nnc2ccc(N3CCC(c4ccc(OCCN5CCN(C)C(=O)[C@H]5C)cc4)CC3)nn12 [AZD5153] + CC1(C)CCC(CN2CCN(c3ccc(C(=O)NS(=O)(=O)c4ccc(NCC5CCOCC5)c([N+](=O)[O-])c4)c(Oc4cnc5[nH]ccc5c4)c3)CC2)=C(c2ccc(Cl)cc2)C1 [Venetoclax] (first compound max 1 µM, 7x7, partner max 1 µM)
Completion: False

Prompt: Confirm if Bliss excess reported for the compound CS(=O)(=O)CCNCc1ccc(-c2ccc3ncnc(Nc4ccc(OCc5cccc(F)c5)c(Cl)c4)c3c2)o1 [Lapatinib] + Cn1cnc2c(F)c(Nc3ccc(Br)cc3Cl)c(C(=O)NOCCO)cc21 [Selumetinib] (first compound max 10 µM, 7x7, partner max 10 µM) is -0.03 or above.
Completion: True

Prompt: # bool: Bliss excess of CC1(C)CCC(CN2CCN(c3ccc(C(=O)NS(=O)(=O)c4ccc(NCC5CCOCC5)c([N+](=O)[O-])c4)c(Oc4cnc5[nH]ccc5c4)c3)CC2)=C(c2ccc(Cl)cc2)C1 [Venetoclax] + Cc1cc2ncnn2cc1Nc1ncc2c(n1)n(C1CCOCC1)c(=O)n2C [AZD7648] (first compound max 1 µM, 7x7, partner max 10 µM) >= -0.03
Completion: False

Prompt: Determine whether measured Bliss excess meets or exceeds -0.03 for Cc1cc2ncnn2cc1Nc1ncc2c(n1)n(C1CCOCC1)c(=O)n2C [AZD7648] + CN(C)CCCOc1ccc(-c2ccc3ncc4c(c3c2)n(C2CCOCC2)c(=O)n4C)cn1 [AZD0156] (first compound max 10 µM, 7x7, partner max 1 µM)
Completion: True

Prompt: Check if Bliss excess >= -0.03 (inclusive). Item: CC(=O)c1c(C)c2cnc(Nc3ccc(N4CCNCC4)cn3)nc2n(C2CCCC2)c1=O [Palbociclib] + Cn1cnc2c(F)c(Nc3ccc(Br)cc3Cl)c(C(=O)NOCCO)cc21 [Selumetinib] (first compound max 10 µM, 7x7, partner max 10 µM)
Completion: True

Prompt: State whether the measured Bliss excess reaches -0.03, counting equality as reaching it, for COc1nnc2ccc(N3CCC(c4ccc(OCCN5CCN(C)C(=O)[C@H]5C)cc4)CC3)nn12 [AZD5153] + C=CCn1c(=O)c2cnc(Nc3ccc(N4CCN(C)CC4)cc3)nc2n1-c1cccc(C(C)(C)O)n1 [AZD1775] (first compound max 1 µM, partner max 1 µM)
Completion: False

Prompt: Check this compound for Bliss excess at or above -0.03: CN(CCO)CC[C@H](CSc1ccccc1)Nc1ccc(S(=O)(=O)NC(=O)c2ccc(N3CCC([C@@H](O)c4ccccc4-c4ccc(Cl)cc4)CC3)cc2)cc1S(=O)(=O)C(F)(F)F [AZD4320] + C[C@@H](Nc1cc(F)cc(F)c1)c1cc(C(=O)N(C)C)cc2c(=O)cc(N3CCOCC3)oc12 [AZD8186] (first compound max 1 µM, 7x7, partner max 3 µM)
Completion: True

Prompt: Kindly determine if Bliss excess recorded for O=C(c1cc(Cc2n[nH]c(=O)c3ccccc23)ccc1F)N1CCN(C(=O)C2CC2)CC1 [Olaparib] + CC1(C)CCC(CN2CCN(c3ccc(C(=O)NS(=O)(=O)c4ccc(NCC5CCOCC5)c([N+](=O)[O-])c4)c(Oc4cnc5[nH]ccc5c4)c3)CC2)=C(c2ccc(Cl)cc2)C1 [Venetoclax] (first compound max 10 µM, 7x7, partner max 1 µM) is above or exactly -0.03.
Completion: False

Prompt: Check if Bliss excess >= -0.03 (inclusive). Item: CC1(C)CCC(CN2CCN(c3ccc(C(=O)NS(=O)(=O)c4ccc(NCC5CCOCC5)c([N+](=O)[O-])c4)c(Oc4cnc5[nH]ccc5c4)c3)CC2)=C(c2ccc(Cl)cc2)C1 [Venetoclax] + CN(C)CCCOc1ccc(-c2ccc3ncc4c(c3c2)n(C2CCOCC2)c(=O)n4C)cn1 [AZD0156] (first compound max 1 µM, 7x7, partner max 1 µM)
Completion: True
